Listed here: items and their measured cytotoxicity at 70.5 h.
Assay: Human HepG2 cell viability assay in 384 well format
Format: toxicity, cell-based
Set-up: dose 125 nL, time 70.5 hour; concentration not given beside the values
Conditions: HepG2 cells, read-out: Inhibition
property.label: cytotoxicity at 70.5 h (%)

| compound | val |
| --- | --- |
| Cc1c(CN2CCCCC2)c(O)n(CCCO)c(=O)c1C#N | -4.27 |
| Cc1noc([C@]23COC[C@H]2CN(S(=O)(=O)C2CC2)C3)n1 | -1.24 |
| O=C(C[C@H]1[C@H]2CN(c3ncccn3)C[C@@H]12)Nc1cccnc1 | 4.76 |
| O=C(C1CC=CC1)N1CCc2ncnc(-c3ccncc3)c2CC1 | 0.995 |
| CS(=O)(=O)N1CCC(C(=O)NC(Cc2ccsc2)c2cccnc2)CC1 (stereo unspecified) | 23.2 |
| NC(=O)C1CCCN1Cc1ccccc1NC(=O)CC(F)(F)F (stereo unspecified) | -3.67 |
| CN(C)CCOc1cccc(CN2CCCC3(C2)CN(C)C(=O)O3)c1 (stereo unspecified) | 26 |
| C=C(C)COc1ccccc1CN1CCC(C(=O)NCC)C1 (stereo unspecified) | -7.01 |
| N#Cc1cc(NS(=O)(=O)c2ccc(C(=O)O)cc2F)ccc1F | -1.12 |
| Cn1cc(CN2CCCC(c3nccnc3-c3cccc(F)c3)C2)cn1 (stereo unspecified) | 16.1 |
| Cc1ccc(CN(C)C(=O)CN2CCc3ccccc3C2)o1 | -6.98 |

----------
Below is a list of entries, each paired with its recorded cytotoxicity at 70.5 h value.
Assay: Human HepG2 cell viability assay in 384 well format
Type: toxicity, cell-based
Parameters: dose 125 nL, time 70.5 hour; concentration not given beside the values
Conditions: HepG2 cells, read-out: Inhibition

| compound | cytotoxicity at 70.5 h, % |
| --- | --- |
| O=C(CN1C=Nc2ccccc2S1(=O)=O)NC1CCCCC1 | 3.38 |
| CCOC(=O)CSc1nnc(C(N)CC(C)C)o1 (stereo not given) | -7.86 |
| c1cnc(OCc2nnc3n2CCN(Cc2ccco2)C3)nc1 | -0.839 |
| Cc1nn(C(=O)c2cccnc2)c(C)c1C | 27.4 |
| CC(C(=O)N1CCCN(Cc2cscn2)CC1)N1CCOCC1 (stereo not given) | -8.05 |
| Cc1nc(CNC(=O)NCC(F)(F)F)oc1C | 3.56 |
| Cc1ncc(S(C)(=O)=O)c(C2CCCNC2)n1 (stereo not given) | 2.69 |
| CN(CCC1CCCCO1)c1nncc(-c2ccccc2)n1 (stereo not given) | -0.965 |
| CC[C@H]1CN2CC[C@H]1C[C@@H]2CNC(=O)Nc1ccc(Br)cc1 | -0.477 |
| O=C(c1cc(-n2cccn2)ccc1Cl)N1CCC(N2CCCC2=O)CC1 | -9.31 |
| Cc1ccc(CN(C)Cc2nc3ccc(F)cc3[nH]2)cn1 | -0.998 |
| O=C(Cc1cccs1)N1CCOCC1CO (stereo not given) | -3.61 |
| O=C(NCCn1nc2ccccn2c1=O)c1sccc1-c1ccccc1 | -5.5 |
| COc1ccc2nnc(CCC(=O)Nc3nc4c(s3)CCC4)n2n1 | -25.1 |
| CCc1nc2n(n1)CCCC2Nc1nc(C(C)C)ns1 (stereo not given) | -9.57 |
| O=C(NS(=O)(=O)Cc1cc(-c2ccccc2)no1)C1CCOCC1 | -1.22 |
| Cc1nccn1CC1CCN(C(=O)c2ccccc2)CC1 | -7.01 |
| CC(C)c1nnc(CN2CCCC2C(=O)OCc2ccccc2)o1 (stereo not given) | -10.4 |
| COCCN1C[C@H](OCc2csc(C)n2)[C@H]2COC[C@H]21 | -9.78 |
| O=C(NCc1ccnc(OCC(F)(F)F)c1)NCC1CCCO1 (stereo not given) | 0.67 |
| O=S(=O)(CCCN1CCCC1Cn1cncn1)c1ccccc1 (stereo not given) | 11.6 |
| CNC(=O)[C@H]1C[C@@H]2CN(Cc3ccc(C)cc3)C[C@H]1O2 | -6.44 |
| Cc1nn(C)c(N(C)C)c1CNCc1cccc(Cn2ccnc2)c1 | 3.64 |
| CC(C)n1ncc2c1NC(=O)CC21C(=O)Nc2c(Cl)ccc(Cl)c21 (stereo not given) | -12.2 |
| CCN(CCNC(=O)c1ccccc1OCCOC)C1CC1 | 54.8 |

Sourced from ChEMBL document CHEMBL3507680
